- experimental-details: Therapeutic index, ratio of IC50 for cytotoxicity against human dermal fibroblast cultured as 3D cells to IC50 for cytotoxicity against human MDA-MB-231 cultured as 3D cells
- Assay type: toxicity, cell-based
- stated-conditions: human dermal fibroblasts versus MDA-MB-231 cells, 3D culture, read-out: TI
assay-endpoint: selectivity ratio

compound="CCOC(=O)CCCCCCC/C=C\\CCCCCCC(C)O[C@@H]1O[C@H](COC(C)=O)[C@@H](O)[C@H](O)[C@H]1O[C@@H]1O[C@H](COC(C)=O)[C@@H](O)[C@H](O)[C@H]1O (some centres not stated)" assay_endpoint="selectivity ratio" value=0.33
compound="CC(=O)OC[C@H]1O[C@H]2OC(C)CCCCCC/C=C\\CCCCCCCC(=O)O[C@H]3[C@H](O)[C@@H](O)[C@H](O[C@@H]2[C@@H](O)[C@@H]1O)O[C@@H]3COC(C)=O (some centres not stated)" assay_endpoint="selectivity ratio" value=0.94
